test system: RAW264.7; test: Antiinflammatory activity in mouse RAW264.7 cells assessed as inhibition of LPS-induced TNFalpha release by ELISA; format: functional, cell-based
Active and inactive are the calls of the source. The calls are words filed in the database; no cut-off is given here.
parameter: inhibition

Some entries whose results are on file:
Record summary for `CC1(C)C[C@@H](O)[C@]2(C)CC[C@]3(C)C(=CC[C@@H]4[C@@]5(C)CC[C@H](O)[C@](C)(CO)[C@@H]5CC[C@]43C)[C@@H]2C1` : reported inhibition = inactive

Record summary for `CC1(C)C[C@H]2C3=CC[C@@H]4[C@@]5(C)CC[C@H](O[C@@H]6O[C@H](C(=O)O)[C@@H](O)[C@H](O)[C@H]6O[C@@H]6O[C@H](CO)[C@@H](O)[C@@H](O)[C@H]6O)[C@](C)(CO)[C@@H]5CC[C@@]4(C)[C@]3(C)CC[C@@]2(C)[C@H](O[C@@H]2OC[C@H](O)[C@@H](O)[C@H]2O[C@@H]2O[C@H](CO)[C@@H](O)[C@@H](O)[C@H]2O)[C@@H]1O` : reported inhibition = Active

Record summary for `C[C@@H]1O[C@@H](O[C@H]2[C@H](O[C@H]3[C@H](O[C@H]4CC[C@@]5(C)[C@@H](CC[C@]6(C)[C@@H]5CC=C5[C@@H]7CC(C)(C)C[C@@H](O)[C@]7(C)CC[C@]56C)[C@@]4(C)CO)O[C@H](C(=O)O)[C@@H](O)[C@@H]3O)O[C@H](CO)[C@H](O)[C@@H]2O)[C@H](O)[C@H](O)[C@H]1O` : reported inhibition = Active

Record summary for `CC1(C)C[C@H]2C3=CC[C@@H]4[C@@]5(C)CC[C@H](O)[C@](C)(CO)[C@@H]5CC[C@@]4(C)[C@]3(C)CC[C@@]2(C)[C@H](O)[C@@H]1O` : reported inhibition = inactive

Now for another entry.
Record summary for `CC1(C)C[C@H]2C3=CC[C@@H]4[C@@]5(C)CC[C@H](O[C@@H]6O[C@H](C(=O)O)[C@@H](O)[C@H](O)[C@H]6O[C@@H]6O[C@H](CO)[C@H](O)[C@H](O)[C@H]6O[C@@H]6O[C@H](CO)[C@@H](O)[C@H](O)[C@H]6O)[C@](C)(CO)[C@@H]5CC[C@@]4(C)[C@]3(C)CC[C@@]2(C)[C@H](O[C@@H]2OC[C@H](O)[C@@H](O)[C@H]2O[C@@H]2O[C@H](CO)[C@@H](O)[C@@H](O)[C@H]2O)[C@@H]1O` : reported inhibition = Active

Provenance of the data: ChEMBL document CHEMBL1759962
